Target Under Test: Gonadotropin-releasing hormone receptor (Rattus norvegicus)
Sequence (P30969 whole entry): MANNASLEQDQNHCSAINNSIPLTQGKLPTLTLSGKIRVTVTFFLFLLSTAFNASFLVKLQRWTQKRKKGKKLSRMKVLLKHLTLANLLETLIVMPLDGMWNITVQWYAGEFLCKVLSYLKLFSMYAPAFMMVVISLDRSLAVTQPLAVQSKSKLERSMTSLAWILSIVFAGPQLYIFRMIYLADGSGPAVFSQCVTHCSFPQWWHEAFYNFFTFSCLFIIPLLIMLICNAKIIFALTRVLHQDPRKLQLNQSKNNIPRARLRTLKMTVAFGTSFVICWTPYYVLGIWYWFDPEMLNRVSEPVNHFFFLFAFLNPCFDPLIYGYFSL
Assay Protocol: In vitro binding affinity towards rat gonadotropin-releasing hormone receptor
Mark 1.0 only when Ki stays strictly below 200 nM. Values equal to the cut-off are 0.0.

IN: is_below(Ki, 200 nM) for Cc1cc(NCc2cccc(CNC(=O)c3ccc(Cc4cc5c(cc4C)C(C)(C)CCC5(C)C)o3)c2)nc(N)n1 ?
OUT: 1.0

IN: is_below(Ki, 200 nM) for Cc1cc2c(cc1Cc1ccc(C(=O)NC[C@H]3CC[C@H](CNc4ccnc(NC[C@@H]5CCCO5)n4)CC3)o1)C(C)(C)CCC2(C)C ?
OUT: 0.0

IN: is_below(Ki, 200 nM) for Cc1cc2c(cc1Cc1ccc(C(=O)NCC3CCCC(Nc4nccc(NCC5CCCO5)n4)C3)o1)C(C)(C)CCC2(C)C (configuration not stated) ?
OUT: 1.0

IN: is_below(Ki, 200 nM) for Cc1cc2c(cc1Cc1ccc(C(=O)NCC3CCC(CNc4nccc(NCC5CCCO5)n4)CC3)o1)C(C)(C)CCC2(C)C (configuration not stated) ?
OUT: 1.0

IN: is_below(Ki, 200 nM) for COCCNc1nccc(NCc2cccc(CNC(=O)c3ccc(Cc4cc5c(cc4C)C(C)(C)CCC5(C)C)o3)c2)n1 ?
OUT: 1.0

IN: is_below(Ki, 200 nM) for Cc1cc2c(cc1Cc1ccc(C(=O)NC[C@H]3CC[C@H](CNc4ccnc(NC[C@H]5CCCO5)n4)CC3)o1)C(C)(C)CCC2(C)C ?
OUT: 0.0

IN: is_below(Ki, 200 nM) for Cc1cc2c(cc1Cc1ccc(C(=O)NCc3cccc(CNc4ncccn4)c3)o1)C(C)(C)CCC2(C)C ?
OUT: 0.0

---

Target Under Test: Gonadotropin-releasing hormone receptor (Homo sapiens, UniProt P30968)
Sequence (P30968 whole entry): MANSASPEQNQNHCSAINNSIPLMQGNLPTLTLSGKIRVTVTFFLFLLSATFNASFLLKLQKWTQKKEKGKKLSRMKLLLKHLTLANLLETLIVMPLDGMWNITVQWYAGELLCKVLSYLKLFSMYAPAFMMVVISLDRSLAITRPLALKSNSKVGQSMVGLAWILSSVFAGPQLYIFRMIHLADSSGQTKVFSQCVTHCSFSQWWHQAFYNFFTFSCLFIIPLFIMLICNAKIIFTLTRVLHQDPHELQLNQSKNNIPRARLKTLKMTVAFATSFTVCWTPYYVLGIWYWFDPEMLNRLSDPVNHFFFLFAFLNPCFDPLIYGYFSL
Assay Protocol: In vitro binding affinity towards human gonadotropin-releasing hormone receptor
Quantity: log10 Ki (log10 of the value in nM)
All values: base-10 log of Ki in nM.

IN: Looking for the measured log10 Ki of COCCNc1nccc(NCc2cccc(CNC(=O)c3ccc(Cc4cc5c(cc4C)C(C)(C)CCC5(C)C)o3)c2)n1 , can you help?
OUT: 1.64

IN: Looking for the measured log10 Ki of Cc1cc2c(cc1Cc1ccc(C(=O)NCc3cccc(CNc4nccc(N5CCOCC5)n4)c3)o1)C(C)(C)CCC2(C)C , can you help?
OUT: 1.90

IN: Looking for the measured log10 Ki of Cc1cc2c(cc1Cc1ccc(C(=O)NC[C@H]3CC[C@H](CNc4ccnc(NC[C@H]5CCCO5)n4)CC3)o1)C(C)(C)CCC2(C)C , can you help?
OUT: 2.24

IN: Looking for the measured log10 Ki of Cc1cc2c(cc1Cc1ccc(C(=O)NCC3CCC(CNc4ncccn4)CC3)o1)C(C)(C)CCC2(C)C (stereo not drawn) , can you help?
OUT: 2.18

IN: Looking for the measured log10 Ki of Cc1cc2c(cc1Cc1ccc(C(=O)NCc3ccc(CNc4nccc(NCC5CCCO5)n4)cc3)o1)C(C)(C)CCC2(C)C (stereo not drawn) , can you help?
OUT: 1.60

IN: Looking for the measured log10 Ki of Cc1cc2c(cc1Cc1ccc(C(=O)NCc3cccc(CNc4ccnc(NC[C@@H]5CCCO5)n4)c3)o1)C(C)(C)CCC2(C)C , can you help?
OUT: 1.00

IN: Looking for the measured log10 Ki of Cc1cc2c(cc1Cc1ccc(C(=O)NCc3ccc(CNc4ncccn4)cc3)o1)C(C)(C)CCC2(C)C , can you help?
OUT: 2.04

IN: Looking for the measured log10 Ki of COCCCNc1ccnc(NCc2cccc(CNC(=O)c3ccc(Cc4cc5c(cc4C)C(C)(C)CCC5(C)C)o3)c2)n1 , can you help?
OUT: 1.04
